system.under.test: serotonin 2 receptor (Rattus norvegicus)
pKi: −log10 of the molar value. Structures can show the parent of a compound that is named as a salt.
Tick true (1) if pKi is 8 or greater. Tick false (0) if pKi is less than 8.

compound	qualitative.label
CCN1CCN(c2nc(-c3ccc(OC(F)(F)F)cc3)cc3ccccc23)CC1 [Example 339, dihydrochloride]	false (0)
CCN1CCN(c2nc(-c3ccc(CCC(C)(C)O)nc3)cc3ccccc23)CC1 [Example 138, Oxalate]	true (1)
CCN1CCN(c2nc(-c3ccc(N4C[C@@H](C)O[C@@H](C)C4)nc3)cc3ccccc23)CC1 [Example 149, trihydrochloride]	false (0)
CCN1CCN(c2nc(-c3ccc(CO)s3)cc3ccccc23)CC1 [Example 162, dihydrochloride]	false (0)
CCN1CCN(c2nc(-c3ccc(N4CCOC4=O)cc3)cc3ccccc23)CC1 [Example 95, Hydrochloride]	false (0)

Hello, I need to know if CCN1CCN(c2nc(-c3ccccn3)cc3ccccc23)CC1 [Example 123, Dihydrochloride] has measured pKi not below 8. Thanks! false (0)

Hello, I need to know if CCN1CCN(c2nc(C(O)c3ccc(OC)cc3)cc3ccccc23)CC1 (centres unmarked) [Example 104, Oxalate] has measured pKi not below 8. Thanks! false (0)

Hello, I need to know if CCN1CCN(c2nc(-c3ccc(OCCOC)nc3)cc3ccccc23)CC1 has measured pKi not below 8. Thanks! true (1)

* * *

Structures can show the parent of a compound that is named as a salt.
attribute.measured: melting point

Use the examples below as a reference point.
compound	result
CCN1CCN(c2nc(-c3ccc(CCC(C)(C)O)cc3)cc3sccc23)CC1 (as salt: hydrochloride) [Example 291, dihydrochloride]	116 to 117.5 °C
COc1ccc(-c2cc3ccccc3c(N3CCOCC3)n2)cc1.Cl	137 to 139 °C
CCN1CCN(c2nc(-c3cccc(OCCO)c3)cc3ccsc23)CC1 (as salt: hydrochloride) [Example 258, Dihydrochloride]	132 to 135 °C
CCN1CCN(c2nc(-c3ccc(C(O)C4CCCC4)cc3)cc3ccsc23)CC1 (stereo not shown) (as salt: hydrochloride) [Example 458, dihydrochloride]	128 to 129 °C
CCN1CCN(c2nc(-c3ccc(C4=CCC(O)CC4)cc3)cc3ccccc23)CC1 (stereo not shown) (as salt: hydrochloride)	164 to 166 °C

Note to self: melting point recorded for CCN1CCN(c2nc(-c3ccc(N4C[C@@H](C)O[C@@H](C)C4)nc3)cc3ccccc23)CC1 (as salt: hydrochloride) [Example 149, trihydrochloride] was 180 °C

Note to self: melting point recorded for CCN1CCN(c2nc(-c3ccc(S(C)(=O)=O)nc3)cc3ccccc23)CC1 (as salt: hydrochloride) was 248 to 250 °C

* * *

Where a name gives a salt, the structure may show the parent alone.
Measured melting point values are reported for all entries that follow.

Use the examples below as a reference point.
molecule	melting point
CCN1CCN(c2nc(-c3ccc(CC4CCOCC4)cc3)cc3ccccc23)CC1 (as salt: hydrochloride) [Example 399, Dihydrochloride]	182 to 184 °C (dec.)
CCN1CCN(c2nc(-c3ccc(OCCCO)cc3)cc3ccccc23)CC1.Cl.Cl [Example 331]	112 to 113 °C (dec.)
CCN1CCN(c2nc(-c3ccc4c(c3)OCCO4)cc3ccccc23)CC1 (as salt: hydrochloride) [Example 332, dihydrochloride]	141 to 143 °C
CCC(=O)Nc1ccc(-c2cc3ccccc3c(N3CCN(CC)CC3)n2)cc1 (as salt: hydrochloride) [Example 69]	176 to 178 °C

Note to self: melting point recorded for CN1CCN(c2nc(-c3ccc(OCCO)cc3)cc3ccsc23)CC1 (as salt: hydrochloride) [Example 253] was 141 to 143 °C

* * *

Measured Ki values are reported for all entries that follow.
system.under.test: serotonin 1A receptor (Rattus norvegicus)
Construct: To the receptor fraction of the hippocampus were added a test compound and 0.5 nM of [^3H]; 8-hydroxy-dipropylaminotetralin; from tissue; host or cells: rat hippocampus membrane fraction
Sequence (P19327 whole entry): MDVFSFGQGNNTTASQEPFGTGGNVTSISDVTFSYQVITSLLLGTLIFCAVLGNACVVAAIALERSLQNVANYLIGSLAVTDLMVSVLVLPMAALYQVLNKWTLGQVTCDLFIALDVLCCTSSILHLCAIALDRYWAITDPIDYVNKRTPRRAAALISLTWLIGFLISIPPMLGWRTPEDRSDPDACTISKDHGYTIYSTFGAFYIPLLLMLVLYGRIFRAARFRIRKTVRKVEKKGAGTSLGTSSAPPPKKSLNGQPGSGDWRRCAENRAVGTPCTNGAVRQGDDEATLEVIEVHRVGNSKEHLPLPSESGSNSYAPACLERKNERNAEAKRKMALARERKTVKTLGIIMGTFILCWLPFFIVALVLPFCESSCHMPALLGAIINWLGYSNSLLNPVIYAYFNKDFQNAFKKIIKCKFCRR
assay.name: Binding test on [3H] 8-hydroxy-dipropylaminotetralin, hippocampus receptor fraction
Design: species or system SD rats
condition.label: rat hippocampus receptor fraction, 0.5 nM [3H] 8-OH-DPAT, room temperature 30 min; read-out: 5HT1
Where a name gives a salt, the structure may show the parent alone.
The figure you give is taken to be in µM; do not add the unit.

Use the examples below as a reference point.
compound	attribute.measured	result.unit	number
CCN1CCN(c2nc(-c3cc(F)c(OCCOC)c(F)c3)cc3ccccc23)CC1 [Example 368, dihydrochloride]	Ki	µM	0.032
CCC(O)c1ccc(-c2cc3ccccc3c(N3CCN(CC)CC3)n2)cc1 (stereo not drawn) [Example 19, hydrochloride]	Ki	µM	0.0069

// below: Ki requested for another compound
Note to self: Ki recorded for CCCC(O)c1ccc(-c2cc3ccccc3c(N3CCN(CC)CC3)n2)cc1 (stereo not drawn) [Example 21, oxalate] was 0.0172

* * *

system.under.test: serotonin 1A receptor (Rattus norvegicus)
Construct: To the receptor fraction of the hippocampus were added a test compound and 0.5 nM of [^3H]; 8-hydroxy-dipropylaminotetralin; from tissue; host or cells: rat hippocampus membrane fraction
assay.name: Binding test on [3H] 8-hydroxy-dipropylaminotetralin, hippocampus receptor fraction
Set-up: species or system SD rats
condition.label: rat hippocampus receptor fraction, 0.5 nM [3H] 8-OH-DPAT, room temperature 30 min; read-out: 5HT1
Where a name gives a salt, the structure may show the parent alone.
Measured pKi values are reported for all entries that follow.
Please note pKi is a logarithmic value: minus log10 of concentration in mol/L. Answer with that number alone.

Use the examples below as a reference point.
molecule	system.under.test	pKi
CCCNC(=O)Cc1ccc(-c2cc3ccccc3c(N3CCN(CC)CC3)n2)cc1 [Example 88, Hydrochloride]	serotonin 1A receptor (Rattus norvegicus)	8.03
CCN1CCN(c2nc(-c3ccc(CCC(C)(C)O)nc3)cc3ccccc23)CC1 [Example 138, Oxalate]	serotonin 1A receptor (Rattus norvegicus)	7.87
CCN1CCN(c2nc(-c3ccc(C(O)CCO)cc3)cc3ccccc23)CC1 (stereo not drawn) [Example 24, hydrochloride]	serotonin 1A receptor (Rattus norvegicus)	7.93

Note to self: pKi recorded for CCN1CCN(c2nc(/C=C/c3ccccc3OCCO)cc3ccoc23)CC1 [Example 308, oxalate] was 8.19

Note to self: pKi recorded for CCN1CCN(c2nc(-c3ccc(C(C)O)cc3)cc3sccc23)CC1 (stereo not drawn) [Example 281, oxalate] was 7.82

Note to self: pKi recorded for CCN1CCN(c2nc(-c3ccc(CCCOC)cc3)cc3ccccc23)CC1 [Example 333, dihydrochloride] was 7.77

* * *

Counter-ions that a name gives are not always drawn.
Let's go through some Ki measurements on serotonin 2 receptor (Rattus norvegicus, UniProt P14842) together.
Sequence (P14842 whole entry): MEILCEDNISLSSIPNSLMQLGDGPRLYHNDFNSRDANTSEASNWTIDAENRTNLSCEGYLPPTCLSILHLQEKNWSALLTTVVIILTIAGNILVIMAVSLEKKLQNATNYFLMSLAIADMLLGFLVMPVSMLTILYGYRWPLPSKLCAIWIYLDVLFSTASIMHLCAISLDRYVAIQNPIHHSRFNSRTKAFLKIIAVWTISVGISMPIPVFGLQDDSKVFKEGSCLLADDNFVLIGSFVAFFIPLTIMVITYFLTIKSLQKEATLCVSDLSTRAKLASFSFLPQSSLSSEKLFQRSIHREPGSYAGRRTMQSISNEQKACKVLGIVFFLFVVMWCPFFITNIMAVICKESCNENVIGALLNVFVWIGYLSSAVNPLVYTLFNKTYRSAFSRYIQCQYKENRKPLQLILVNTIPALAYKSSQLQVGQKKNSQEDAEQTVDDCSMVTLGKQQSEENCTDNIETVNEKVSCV

Hey, serotonin 2 receptor (Rattus norvegicus, UniProt P14842) data for CCN1CCN(c2nc(-c3ccc(CCCF)nc3)cc3ccccc23)CC1 [Example 133] : Ki came out at 6.2 nM

Hey, serotonin 2 receptor (Rattus norvegicus, UniProt P14842) data for CCN1CCN(c2nc(Sc3ccccn3)cc3ccccc23)CC1 [Example 378, Oxalate] : Ki came out at 95.2 nM

Hey, serotonin 2 receptor (Rattus norvegicus, UniProt P14842) data for CCN1CCN(c2nc(/C=C/c3ccc(N4CCOCC4)nc3)cc3ccccc23)CC1 [Example 200, Hydrochloride] : Ki came out at 7.33 nM

Hey, serotonin 2 receptor (Rattus norvegicus, UniProt P14842) data for CCN1CCN(c2nc(-c3ccc(N4CC[S+]([O-])CC4)nc3)cc3ccccc23)CC1 [Example 151, trihydrochloride] : Ki came out at 79.2 nM

Hey, serotonin 2 receptor (Rattus norvegicus, UniProt P14842) data for CCN1CCN(c2nc(-c3ccc(CC4CCOCC4)cc3)cc3ccccc23)CC1 [Example 399, Dihydrochloride] : Ki came out at 17.2 nM

Hey, serotonin 2 receptor (Rattus norvegicus, UniProt P14842) data for CCN1CCN(c2nc(N3CCN(c4ccccc4)CC3)cc3ccccc23)CC1 [Example 158] : Ki came out at 1.08 nM

Hey, serotonin 2 receptor (Rattus norvegicus, UniProt P14842) data for CCN1CCN(c2nc(-c3ccc(OCCO)c(OC)c3)cc3ccccc23)CC1 [Example 340, dihydrochloride] : Ki came out at 20.7 nM

* * *

system.under.test: serotonin 2 receptor (Rattus norvegicus)
Counter-ions that a name gives are not always drawn.
Measured Ki values are reported for all entries that follow.
The figure you give is taken to be in nM; do not add the unit.

Use the examples below as a reference point.
molecule	number
CCOCCCc1ccc(-c2cc3ccccc3c(N3CCN(CC)CC3)n2)cn1 [Example 142, Oxalate]	15.2
CCN1CCN(c2nc(C=C(COC)c3ccccc3)cc3ccccc23)CC1 (stereo in doubt) [Example 208, Oxalate]	7.62
CCN1CCN(c2nc(-c3ccc(S(N)(=O)=O)cc3)cc3ccccc23)CC1 [Example 74, Hydrochloride]	7.7

Note to self: Ki recorded for CCN1CCN(c2nc(-c3ccc(C(=O)NC)cc3)cc3ccccc23)CC1 [Example 365, dihydrochloride] was 9.9

Note to self: Ki recorded for CCN1CCN(c2nc(-c3ccc(S(=O)(=O)N4CCSCC4)cc3)cc3ccccc23)CC1 [Example 76, Hydrochloride] was 8.9

Note to self: Ki recorded for CCN1CCN(c2nc(-c3ccc(COCCO)cc3)cc3ccccc23)CC1 [Example 44, Hydrochloride] was 9

Note to self: Ki recorded for CCN1CCN(c2nc(-c3ccc(CCCO)cc3)cc3sccc23)CC1 [Example 465, dihydrochloride] was 7.11

Note to self: Ki recorded for CCN1CCN(c2nc(-c3cc(F)c(OCCOC)c(F)c3)cc3ccccc23)CC1 [Example 368, dihydrochloride] was 9.1

Note to self: Ki recorded for CCN1CCN(c2nc(CNc3ccc(OC)cc3)cc3ccccc23)CC1 [Example 219, oxalate] was 5.92

Data provenance is patent US6875761B2.
